Catalogue of activity at 1 µM readings, one per entry.
Test system: Osteoblasts (Calvarial cells)
Test summary: Alkaline phosphatase (ALP) activity in osteoblasts (Calvarial cells)
Format: cell-based, mice
Details: Mus musculus, 72 h; 1 μM compound, 3 days, Calvarial cell; read-out: ALP activity (1 μM, % of Control) Calvarial cell

Chemical structure: N#Cc1ccc(Nc2nc(NCc3ccncc3)ccc2[N+](=O)[O-])cc1
Result unit: %
activity at 1 µM: 149
--
Chemical structure: CC(C)(C)c1ccc(Nc2nc(N3CCC(N)CC3)ccc2[N+](=O)[O-])cc1
Result unit: %
activity at 1 µM: 121
--
Chemical structure: CC(C)CNc1ccc([N+](=O)[O-])c(Nc2ccc(N)cc2)n1
Result unit: %
activity at 1 µM: 115
--
Chemical structure: Cc1nc(-c2ccc(Nc3nc(NCc4cccnc4)ccc3[N+](=O)[O-])cc2)cs1
Result unit: %
activity at 1 µM: 121
--
Chemical structure: CNc1ccc([N+](=O)[O-])c(Nc2ccc(C#N)cc2)n1
Result unit: %
activity at 1 µM: 133
--
Chemical structure: Cc1ccc(Nc2nc(NCCCn3ccnc3)ccc2[N+](=O)[O-])cc1
Result unit: %
activity at 1 µM: 129
--
Chemical structure: Nc1cccc(Nc2nc(N3CCC(N)CC3)ccc2[N+](=O)[O-])c1
Result unit: %
activity at 1 µM: 133
--
Chemical structure: CNc1ccc([N+](=O)[O-])c(Nc2ccc(-n3ccnc3)cc2)n1
Result unit: %
activity at 1 µM: 144
--
Chemical structure: Cc1ccc(Nc2nc(N3CCOCC3)ccc2[N+](=O)[O-])cc1
Result unit: %
activity at 1 µM: 135
--
Chemical structure: COc1ccc(Nc2nc(NCCCn3ccnc3)ccc2[N+](=O)[O-])cc1
Result unit: %
activity at 1 µM: 126
--
Chemical structure: CC(=O)c1cccc(Nc2nc(NC(C)C)ccc2[N+](=O)[O-])c1
Result unit: %
activity at 1 µM: 188
--
Chemical structure: CC(=O)c1cccc(Nc2nc(N3CCC(O)CC3)ccc2[N+](=O)[O-])c1
Result unit: %
activity at 1 µM: 189
--
Chemical structure: CC(C)Nc1ccc([N+](=O)[O-])c(Nc2ccc(-n3ccnc3)cc2)n1
Result unit: %
activity at 1 µM: 116
--
Chemical structure: CC(=O)c1cccc(Nc2nc(N3CCN(C)CC3)ccc2[N+](=O)[O-])c1
Result unit: %
activity at 1 µM: 121
--
Chemical structure: NC1CCN(c2ccc([N+](=O)[O-])c(Nc3ccc(-c4csc(C5CCCCC5)n4)cc3)n2)CC1
Result unit: %
activity at 1 µM: 121
--
Chemical structure: O=[N+]([O-])c1ccc(NCCCn2ccnc2)nc1Nc1ccc(-n2ccnc2)cc1
Result unit: %
activity at 1 µM: 138
--
Chemical structure: CC(C)Nc1ccc([N+](=O)[O-])c(Nc2ccc(C(C)(C)C)cc2)n1
Result unit: %
activity at 1 µM: 134
--
Chemical structure: Cc1nc(-c2ccc(Nc3nc(NC(C)(C)C)ccc3[N+](=O)[O-])cc2)cs1
Result unit: %
activity at 1 µM: 118

###

Test system: Osteoblasts (Calvarial cells)
Test summary: Cytotoxicity test (MTT)
Details: 1 μM compound, 72 hours, in comparison with vehicle control
Catalogue of Cell viability (%) Calvarial cell readings, one per entry.

Compound: CN(CC1OCCO1)c1ccc([N+](=O)[O-])c(Nc2ccc(-n3ccnc3)cc2)n1
Result unit: %
Cell viability (%) Calvarial cell: 89
//
Compound: CC(C)c1nccn1-c1ccc([N+](=O)[O-])c(Nc2ccc(N3CCCCC3)c(F)c2)n1
Result unit: %
Cell viability (%) Calvarial cell: 99
//
Compound: CN1CCN(c2ccc([N+](=O)[O-])c(Nc3ccc(N4CCC(N)CC4)c(F)c3)n2)CC1
Result unit: %
Cell viability (%) Calvarial cell: 101
//
Compound: CC(C)CNc1ccc([N+](=O)[O-])c(Nc2ccc(N3CCCC(CO)C3)c(F)c2)n1 (stereo not shown)
Result unit: %
Cell viability (%) Calvarial cell: 107

###

System: Osteoblasts (Calvarial cells)
Test summary: Cytotoxicity test (MTT)
Details: 1 μM compound, 72 hours, in comparison with vehicle control
Value kind: Cell viability (%) Calvarial cell

Compound: O=[N+]([O-])c1ccc(NCc2ccncc2)nc1Nc1ccc(N2CCC(O)CC2)c(F)c1
Result unit: %
Observed result: 114

Compound: O=C(O)C1CCN(c2ccc(Nc3nc(NCc4ccncc4)ccc3[N+](=O)[O-])cc2F)CC1
Result unit: %
Observed result: 106

Compound: CN(CC1OCCO1)c1ccc([N+](=O)[O-])c(Nc2ccc(F)c(F)c2)n1
Result unit: %
Observed result: 99

Compound: O=[N+]([O-])c1ccc(N2CCC(O)CC2)nc1Nc1ccc(N2CCOCC2)c(F)c1
Result unit: %
Observed result: 107

Compound: CC(C)(C)Nc1ccc([N+](=O)[O-])c(Nc2ccc(N3CCCC(CO)C3)c(F)c2)n1 (centres unmarked)
Result unit: %
Observed result: 118

Compound: CCN(CCO)c1ccc([N+](=O)[O-])c(Nc2ccc(-c3csc(C4CCCCC4)n3)cc2)n1
Result unit: %
Observed result: 108

Compound: CC(C)(C)Nc1ccc([N+](=O)[O-])c(Nc2ccc(N3CCC(C(N)=O)CC3)c(F)c2)n1
Result unit: %
Observed result: 102

Compound: CCN(CC)c1ccc(Nc2nc(NCCN3CCOCC3)ccc2[N+](=O)[O-])cc1F
Result unit: %
Observed result: 111

###

Catalogue of Cell viability (%) Calvarial cell readings, one per entry.
Tested on: Osteoblasts (Calvarial cells)
Test summary: Cytotoxicity test (MTT)
Details: 1 μM compound, 72 hours, in comparison with vehicle control
Value kind: Cell viability (%) Calvarial cell

Compound: NC(=O)C1CCCN(c2ccc(Nc3nc(N4CCC(O)CC4)ccc3[N+](=O)[O-])cc2F)C1 (centres unmarked)
Result unit: %
Observed result: 107

Compound: O=[N+]([O-])c1ccc(NCc2ccncc2)nc1Nc1ccc(N2CCOCC2)c(F)c1
Result unit: %
Observed result: 96

Compound: CNc1ccc([N+](=O)[O-])c(Nc2ccc(N3CCC(C(N)=O)CC3)c(F)c2)n1
Result unit: %
Observed result: 115

Compound: NC(=O)C1CCCN(c2ccc(Nc3nc(N4CCOCC4)ccc3[N+](=O)[O-])cc2F)C1 (centres unmarked)
Result unit: %
Observed result: 109

Compound: CC(C)(C)Nc1ccc([N+](=O)[O-])c(Nc2ccc(N3CCCC(C(N)=O)C3)c(F)c2)n1 (centres unmarked)
Result unit: %
Observed result: 103

Compound: O=[N+]([O-])c1ccc(NCc2ccncc2)nc1Nc1ccc(N2CCSCC2)c(F)c1
Result unit: %
Observed result: 105

Compound: CC1=NCCN1c1ccc([N+](=O)[O-])c(Nc2ccc(N3CCCC(CO)C3)c(F)c2)n1 (centres unmarked)
Result unit: %
Observed result: 103

Compound: CC(C)CNc1ccc([N+](=O)[O-])c(Nc2ccc(N3CCCCC3C)c(F)c2)n1 (centres unmarked)
Result unit: %
Observed result: 108

Compound: O=[N+]([O-])c1ccc(N2CCC(O)CC2)nc1Nc1ccc(N2CCCC(CO)C2)c(F)c1 (centres unmarked)
Result unit: %
Observed result: 102

Compound: O=[N+]([O-])c1ccc(NCc2ccncc2)nc1Nc1ccc(N2CCCCC2)c(F)c1
Result unit: %
Observed result: 101

Compound: CNc1ccc([N+](=O)[O-])c(Nc2ccc(N3CCC(O)CC3)c(F)c2)n1
Result unit: %
Observed result: 91

Compound: NC1CCN(c2ccc(Nc3nc(N4CCOCC4)ccc3[N+](=O)[O-])cc2F)CC1
Result unit: %
Observed result: 100

Compound: O=C(O)C1CCN(c2ccc(Nc3nc(NCc4cccnc4)ccc3[N+](=O)[O-])cc2F)CC1
Result unit: %
Observed result: 101

Compound: NC(=O)C1CCCN(c2ccc(Nc3nc(NCc4cccnc4)ccc3[N+](=O)[O-])cc2F)C1 (centres unmarked)
Result unit: %
Observed result: 97

Compound: CC(C)c1nccn1-c1ccc([N+](=O)[O-])c(Nc2ccc(N3CCOCC3)c(F)c2)n1
Result unit: %
Observed result: 100

Compound: O=[N+]([O-])c1ccc(N2CCOCC2)nc1Nc1ccc(N2CCC(O)CC2)c(F)c1
Result unit: %
Observed result: 94

Compound: NC(=O)C1CCCN(c2ccc(Nc3nc(NCCCN4CCOCC4)ccc3[N+](=O)[O-])cc2F)C1 (centres unmarked)
Result unit: %
Observed result: 103

Compound: CC(C)Nc1ccc([N+](=O)[O-])c(Nc2ccc(N3CCC(C(N)=O)CC3)c(F)c2)n1
Result unit: %
Observed result: 119

Compound: O=[N+]([O-])c1ccc(NCCc2ccccn2)nc1Nc1ccc(N2CCCC(CO)C2)c(F)c1 (centres unmarked)
Result unit: %
Observed result: 103

Compound: O=[N+]([O-])c1ccc(N2CCNCC2)nc1Nc1ccc(N2CCCCC2)c(F)c1
Result unit: %
Observed result: 102

Compound: NC1CCN(c2ccc([N+](=O)[O-])c(Nc3ccc(N4CCC(N)CC4)c(F)c3)n2)CC1
Result unit: %
Observed result: 104

Compound: CNc1ccc([N+](=O)[O-])c(Nc2ccc(N3CCC(N)CC3)c(F)c2)n1
Result unit: %
Observed result: 95

Compound: CCN(CC)c1ccc(Nc2nc(N3CCC(N)CC3)ccc2[N+](=O)[O-])cc1F
Result unit: %
Observed result: 102

Compound: CC(C)CNc1ccc([N+](=O)[O-])c(Nc2ccc(N3CCC(N)CC3)c(F)c2)n1
Result unit: %
Observed result: 85

Compound: NC(=O)C1CCCN(c2ccc(Nc3nc(N4CCC(N)CC4)ccc3[N+](=O)[O-])cc2F)C1 (centres unmarked)
Result unit: %
Observed result: 110

Compound: NC1CCN(c2ccc([N+](=O)[O-])c(Nc3ccc(N4CCSCC4)c(F)c3)n2)CC1
Result unit: %
Observed result: 103

Compound: CC(C)CNc1ccc([N+](=O)[O-])c(Nc2ccc(N3CCSCC3)c(F)c2)n1
Result unit: %
Observed result: 109

Compound: O=[N+]([O-])c1ccc(NCc2ccncc2)nc1Nc1ccc(N2CCCC(CO)C2)c(F)c1 (centres unmarked)
Result unit: %
Observed result: 123

Compound: O=[N+]([O-])c1ccc(N2CCNCC2)nc1Nc1ccc(N2CCSCC2)c(F)c1
Result unit: %
Observed result: 95

Compound: CC(C)(C)Nc1ccc([N+](=O)[O-])c(Nc2ccc(N3CCSCC3)c(F)c2)n1
Result unit: %
Observed result: 110

Compound: O=[N+]([O-])c1ccc(N2CCC(O)CC2)nc1Nc1ccc(N2CCC(O)CC2)c(F)c1
Result unit: %
Observed result: 98

Compound: CC(C)c1nccn1-c1ccc([N+](=O)[O-])c(Nc2ccc(N3CCSCC3)c(F)c2)n1
Result unit: %
Observed result: 101
